test system: MV-4-11; assay: Cell growth inhibition assay (CellTiter-Glo), MV-4-11; type: cell-based, human; conditions: MV-4-11 cells, 4 days, total growth inhibition

compound	MV-4-11 TGI / nM
Cc1cc(N2C(=O)c3cc(-c4cccnc4O)[nH]c3C2c2ccc(Cl)cc2)cn2c(C)nnc12 (centres unmarked) [Example 26]	118.5
Cc1cn(CCO)c2c1C(=O)N(c1cc(C)c3nnc(C)n3c1)C2c1ccc(Cl)cc1 (centres unmarked) [Example 14]	30.85
Cc1cc(N2C(=O)c3cc(-c4cccn(C)c4=O)[nH]c3C2c2ccc(Cl)cc2)cn2c(C)nnc12 (centres unmarked) [Example 25]	58.15
Cc1cc(N2C(=O)c3ccn(C)c3C2c2ccc(Cl)cc2)cn(C)c1=O (centres unmarked) [Example 72]	125
Cn1c(-c2cccn(C)c2=O)cc2c1C(c1ccc(Cl)cc1)N(c1cc(Cl)c(=O)n(C)c1)C2=O (centres unmarked) [Example 43]	310
Cc1cc(N2C(=O)c3ccn(C4CC4)c3C2c2ccc(Cl)cc2)cn(C)c1=O (centres unmarked) [Example 61]	106
Cc1cc(N2C(=O)c3cc(-c4ccc(=O)n(C)c4)n(C)c3C2c2ccc(Cl)cc2)cn(C)c1=O (centres unmarked) [Example 46]	292
CNC(=O)n1ccc2c1C(c1ccc(Cl)cc1)N(c1cc(C)c3nnc(C)n3c1)C2=O (centres unmarked) [Example 23]	54.7

----------
Test system: MV-4-11
Assay: Cell growth inhibition assay (CellTiter-Glo), MV-4-11
Type: cell-based, human
Settings: MV-4-11 cells, 4 days, total growth inhibition
Description: Cell Growth Inhibition Assay The human leukemia cell lines MV-4-11, THP-1 and K-562 were employed to characterize the effect of BET inhibitors on cellular proliferation and viability. […] Compound-mediated suppression of cell proliferation/viability was assessed by quantification of cellular ATP levels using the CellTiter-Glo (CTG) reagent (Promega). […] Dose-response effects were assessed by 3-fold serial dilutions of the test compound, starting at 10 μM. […]
Listed below: MV-4-11 TGI values for each entry.
readout_name: MV-4-11 TGI (nM)

compound	readout_name	number
Cc1cn(C2COC2)c2c1C(=O)N(c1cc(C)c3nnc(C)n3c1)C2c1ccc(Cl)cc1 (centres unmarked)	MV-4-11 TGI	21.4
Cc1cc(N2C(=O)c3cc(C4=CCOCC4)n(C)c3C2c2ccc(Cl)cc2)cn2c(C)nnc12 (centres unmarked) [Example 31]	MV-4-11 TGI	23.7
Cc1cc(N2C(=O)c3c(C4CC4)c(C4=CCOCC4)n(C)c3C2c2ccc(Cl)cc2)cn2c(C)nnc12 (centres unmarked)	MV-4-11 TGI	3.76
Cc1cn(CCN(C)C)c2c1C(=O)N(c1cc(C)c3nnc(C)n3c1)C2c1ccc(Cl)cc1 (centres unmarked)	MV-4-11 TGI	62.9
Cc1cn(C)c2c1C(=O)N(c1cc(C)c(=O)n(C)c1)C2c1ccc(Cl)cc1 (centres unmarked)	MV-4-11 TGI	48.3
COc1ncc(-c2cc3c(n2C)C(c2ccc(Cl)cc2)N(c2cc(Cl)c(=O)n(C)c2)C3=O)c(OC)n1 (centres unmarked)	MV-4-11 TGI	51.5
CC(=O)N1CC(n2cc(C3CC3)c3c2C(c2ccc(Cl)cc2)N(c2cc(C)c4nnc(C)n4c2)C3=O)C1 (centres unmarked)	MV-4-11 TGI	34.85
Cn1ccc2c1C(c1ccc(F)cc1)N(c1cc(Cl)c(=O)n(C)c1)C2=O (centres unmarked)	MV-4-11 TGI	359
